MBC90 for assorted compounds
tested on: Helicobacter pylori; assay: Bactericidal against Helicobacter pylori measured after 72 hrs of incubation under microaerophilic conditions by modified broth dilution method; type: functional

Completed entries (count: 6):
Mol: COc1cc(C)c(/N=N/c2ccc([N+](=O)[O-])cc2)cc1C(C)C
MBC90: >128 µg/mL
//
Mol: COc1cc(C=O)cc(/N=N/c2cccc(Cl)c2)c1O
MBC90: >128 µg/mL
//
Mol: COc1ccc(/N=N/c2cc(C)c(O)c(/N=N/c3ccc(OC)cc3)c2C(C)C)cc1
MBC90: >128 µg/mL
//
Mol: COc1cc(C=O)cc(/N=N/c2ccc(C#N)cc2)c1O
MBC90: 16 µg/mL
//
Mol: COc1ccc(/N=N/c2cc(C(C)C)c(OC)cc2C)cc1
MBC90: >128 µg/mL
//
Mol: CC1(C)S[C@@H]2[C@H](NC(=O)[C@H](N)c3ccc(O)cc3)C(=O)N2[C@H]1C(=O)O
MBC90: 0.064 µg/mL

Request: I have this compound here, `C=CCc1cc(/N=N/c2cccc(OC)c2)c(O)c(OC)c1` , and I need its recorded MBC90.
Response: >128 µg/mL

Request: I have this compound here, `C=CCc1cc(/N=N/c2ccc([N+](=O)[O-])cc2)c(O)c(OC)c1` , and I need its recorded MBC90.
Response: 128 µg/mL

Request: I have this compound here, `COc1ccc(/N=N/c2cc(C)c(O)cc2C(C)C)cc1` , and I need its recorded MBC90.
Response: 8 µg/mL

====

tested on: Helicobacter pylori; assay: Bactericidal against Helicobacter pylori measured after 72 hrs of incubation under microaerophilic conditions by modified broth dilution method; type: functional
MBC90 for assorted compounds
Number only, in µg/mL; omit the unit.

Completed entries (count: 2):
Mol: COc1cc(C=O)cc(/N=N/c2ccccc2Cl)c1O
Measured On: Helicobacter pylori
Unit Of Measure: µg/mL
MBC90: 64
--
Mol: COc1cc(C=O)cc(/N=N/c2ccc(Br)cc2)c1O
Measured On: Helicobacter pylori
Unit Of Measure: µg/mL
MBC90: 32

Request: I have this compound here, `COc1cc(C=O)cc(/N=N/c2ccc(C)cc2)c1O` , and I need its recorded MBC90.
Response: 8

Request: I have this compound here, `COc1ccc(/N=N/c2cc(C(C)C)c(OC(C)=O)cc2C)cc1` , and I need its recorded MBC90.
Response: 128

Request: I have this compound here, `Cc1cc(OC(=O)N(C)C)c(C(C)C)cc1/N=N/c1ccc([N+](=O)[O-])cc1` , and I need its recorded MBC90.
Response: 128

Request: I have this compound here, `Cc1cc(O)c(C(C)C)cc1/N=N/c1ccccc1Cl` , and I need its recorded MBC90.
Response: 8

====

test: Cytotoxicity against SV40-immortalized non-tumorigenic human GES1 cells assessed as cell viability measured after 24 hrs by Alamar blue assay; type: toxicity, cell-based
IC50 at 24 h for assorted molecules
Number only, in µg/mL; omit the unit.

Mol: Cc1ccc(C(C)C)c(/N=N/c2ccc([N+](=O)[O-])cc2)c1O
Unit Of Measure: µg/mL
IC50 at 24 h: 15

Next:
Request: I have this molecule here, `Cc1cc(O)c(C(C)C)cc1/N=N/c1ccc([N+](=O)[O-])cc1` , and I need its recorded IC50 at 24 h.
Response: 12.1
